Can you tell me IC50 for the items I'm about to list?
# Assayed target: T1, human Protein S (UniProt P07225 42-676)
# T1 chain: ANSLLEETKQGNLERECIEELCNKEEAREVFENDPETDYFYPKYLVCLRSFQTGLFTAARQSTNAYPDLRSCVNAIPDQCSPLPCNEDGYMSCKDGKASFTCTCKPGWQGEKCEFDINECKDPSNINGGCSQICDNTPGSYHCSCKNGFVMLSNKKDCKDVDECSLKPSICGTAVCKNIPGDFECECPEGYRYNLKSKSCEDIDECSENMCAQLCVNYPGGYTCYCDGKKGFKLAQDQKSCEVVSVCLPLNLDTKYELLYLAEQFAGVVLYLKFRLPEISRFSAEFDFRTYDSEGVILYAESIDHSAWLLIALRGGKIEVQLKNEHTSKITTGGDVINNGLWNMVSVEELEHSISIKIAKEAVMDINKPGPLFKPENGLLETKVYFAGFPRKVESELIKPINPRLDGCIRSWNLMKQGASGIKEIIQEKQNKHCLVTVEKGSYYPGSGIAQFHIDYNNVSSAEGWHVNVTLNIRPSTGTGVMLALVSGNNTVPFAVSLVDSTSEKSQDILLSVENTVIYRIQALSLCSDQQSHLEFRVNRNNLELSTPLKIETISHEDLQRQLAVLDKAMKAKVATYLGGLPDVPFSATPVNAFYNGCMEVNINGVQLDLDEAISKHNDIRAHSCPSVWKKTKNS
# Method summary: LANCE competition

[Q] Need IC50, item Ac-EYTVSAGWYDYNNDIYFEFY-NH2 [JBS3219]
[A] 1.1 nM

[Q] Now the same for Ac-ESYVSAGWYDYNTDTYYEFF-NH2 [JBS3223]
[A] 0.7 nM

[Q] Request: MEYYVSAGWYDYNTDTYYEFE [JBS3224]
[A] 1.3 nM

[Q] Same for Ac-EYYVSAGWYDYNYDVYTEFE-NH2 [JBS3248]
[A] 3.7 nM

[Q] Try this binder too: Ac-EYYVSAGWYDYNTDTYYEFE-NH2 [JBS3216]
[A] 0.7 nM

[Q] // query: Ac-EEYVSAGWYDMNRDTYTEFY-NH2 [JBS3252]
[A] 12.8 nM

[Q] Subsequent entry: Ac-YGLVEAGWYDYNNDTYMEFT-NH2 [JBS3201]
[A] 1.8 nM
